Property: pEC50; scope: individual compounds
Test system: TGF-b induced Endothelin-1 production
experiment.description: ET-1 assay: inhibitory effect on TGF-b induced endothelin-1 production
Type: cell-based
measurement.parameters: Homo sapiens, Fibroblast; fibroblasts, stimulant (TGFb, serum, LPA etc), ET-1 in media by ELISA, 4-parameter fit
Description: Assay of Inhibitory Effect on TGF-b Induced Endothelin-1 Production Fibroblasts (primary human lung and dermal, HFL-1, 3T3 etc) are seeded in 96-well plates at ˜15000 cells/well and serum starved for 0-48 hours. After media exchange, compounds serially diluted in DMSO are added to the cells. […] ET-1 is quantified using an ELISA kit (R&D Systems). The amount of ET-1 produced in the assay wells are back-calculated using the ELISA standard. […]
pEC50: −log10 of the molar value.

Known results for compounds:
Cc1cc(=O)n(-c2ccc(Cl)cc2C)cc1-c1cnn(C)c1 [Compound 229] = 3.70 to 4.30
Cc1cc(=O)n(-c2ccc(OC(F)(F)F)cc2)cc1-c1ccc2scnc2c1 [Compound 251] = > 4.30
COc1cccc(-n2cc(-c3c(C)n[nH]c3C)ccc2=O)c1 [Compound 378] = 3.70 to 4.30

Known value: TGF-b induced Endothelin-1 production pEC50 of the compound CCOc1ccc(CNc2cc(=O)n(-c3ccc(OC(F)(F)F)cc3)cc2-c2cnn(C)c2)c(F)c1 [Compound 528] equals > 4.30

Known value: TGF-b induced Endothelin-1 production pEC50 of the compound Cc1nc2c(=O)n(-c3ccc(OC(F)(F)F)cc3)ccc2o1 [Compound 570] equals < 3.70

Known value: TGF-b induced Endothelin-1 production pEC50 of the compound CCn1ccc2c(-c3ccc(F)cc3)c[nH]c(=O)c21 [Compound 595] equals > 4.30

Known value: TGF-b induced Endothelin-1 production pEC50 of the compound Cc1cc(=O)n(-c2ccc(Cl)cc2)cc1-c1ccc(F)cc1 [Compound 181] equals < 3.70

Known value: TGF-b induced Endothelin-1 production pEC50 of the compound Cc1cc(=O)n(-c2ccc(OC(F)(F)F)cc2)cc1-c1ccncc1 [Compound 242] equals < 3.70

Known value: TGF-b induced Endothelin-1 production pEC50 of the compound CC(C)Oc1ccc(-n2cc(-c3cn[nH]c3)ccc2=O)cc1 [Compound 369] equals 3.70 to 4.30
